molecular target: Myo3, P36006; test: SPOT array; settings: median of control spots 468
Observed Property: SPOT intensity

Worked cases, answers included:
QTREPNEPPPPSPAM    502
PSRRDSLSIPRAVDA    3
ERPKRRAPPPVPKKP    358
RRSKSLPITPKSIFN    0
RRGPAPPPPPRASRP    0

I. QPPLPSSAPPIPTSH
II. SLSRRRFSLPSMPNV
Asked: Please compare: I and II . Report which one has the smaller SPOT intensity value. Could you answer with the label of the item you picked?
Given back: II

I. NNQRRKPLLLNIGDH
II. VFQFQMPTTPISTKM
Asked: Endpoint returns the identifier whose SPOT intensity is numerically larger, either I or II . Kindly state the label of the option you pick.
Given back: II
(II: 32, I: 0)
